# Assay Method Text: qHTS assay to test for compound auto fluorescence at 590 nm (red) in HepG2 cells (AID 720674)
# Experimental Conditions: HepG2 autofluorescence, red 540/590 nm, 1 h; series mostly up to 91.3 µM
Activity calls are given as the source filed them. Calls follow the shape of the dose curve; as a rule, active = well fitted curve in the direction sought with a large enough effect in the repeat runs; inconclusive = weak or mixed curves; inactive = flat fitted curve, though single readings scatter.
Endpoint Name: fluorescence, relative to Rose Bengal

Molecule	fluorescence, relative to Rose Bengal
CCN(CC)CCOc1ccc(C(O)(Cc2ccc(Cl)cc2)c2ccc(C)cc2)cc1 (configuration not stated)	inactive
CNC(=S)NN	inactive
CCCCCCCC/C=C/CCCOC(C)=O	inactive
CN(C)c1ccc(N=NS(=O)(=O)O)cc1	inactive
ClC/C=C\CCl	inactive
C=C1C(C)(C)[C@@]2(Cl)C(Cl)[C@]1(Cl)C(Cl)(Cl)C2(Cl)Cl (some centres not stated)	inactive

Record fluorescence, relative to Rose Bengal for all entries; do not skip any.
1. CN(C)CCOC(c1ccccc1)c1ccccc1 (tested in a mixture with another compound)
2. O=S(=O)(O)CCCN1CCOCC1
3. CC(C)OC(=O)c1cc(C(=O)OC(C)C)cc([N+](=O)[O-])c1
4. N[C@@H](CSSC[C@H](N)C(=O)O)C(=O)O
5. CCCCC(CC)COC(=O)c1ccc(O)cc1 (configuration not stated)
6. COc1ccccc1OCCNCC(O)COc1cccc2[nH]c3ccccc3c12 (configuration not stated)

## Output
1: inactive; 2: inactive; 3: inactive; 4: inactive; 5: inactive; 6: inactive
